Cited source for all entries: patent US20220204601A1

- study.system: T1, K280-ac protein fragment (human)
- T1 construct: also called mAC
- T1 peptide: VQIINK(Ac)KLDLSN
- test: ELISA on K280-ac coated at 250 ng/well, HRP anti-human IgG
Ends that are not written are not given here.
Collected Absorbance at 450nm at 0.01ug/well values appear next to each entry.

# binder, Absorbance at 450nm at 0.01ug/well
data = [
    ("v11 (antibody, V domains shown, also called Y01h01v11; ADEL-Y01h v11 antibody) VH: EVQLVESGGGLVQPGRSLRLSCTVSGDSITSGYWNWFRQAPGKGLEYVGYIRYSGRTYYNPSLKSRFTISRDTSKNIAYLQMNSLKTEDTAVYYCASVYFTYWGQGTLVTVSS VL: DVVMTQSPDSLAVSLGERATINCKSSQSLLDSDGKTYLNWYQQKPGQSPKRLISLVSKLDSGVPDRFSGSGSGTDFTLTISSLQAEDVAVYYCWQGSHFPYTFGQGTKLEIK", 0.0085),
    ("ADEL-Y01h v10 antibody (antibody, V domains shown, Humanized antibody; It was detected with anti-human IgG; also called Y01h01v10) VH: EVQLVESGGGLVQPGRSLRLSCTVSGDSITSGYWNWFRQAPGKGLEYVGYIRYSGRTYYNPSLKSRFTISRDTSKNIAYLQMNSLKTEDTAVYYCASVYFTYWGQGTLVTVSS VL: DVVMTQSPLSLPVTLGQPASISCKSSQSLLDSDGKTYLNWFQQRPGQSPKRLISLVSKLDSGVPDRFSGSGSGTDFTLKISRVEAEDVGVYYCWQGSHFPYTFGQGTKLEIK", 0.568),
    ("ADEL-Y01h v06 antibody (antibody, V domains shown, Humanized antibody; It was detected with anti-human IgG; also called Y01h01v06) VH: EVQLQQSGPGLVKPSQTLSLTCAVSGDSITSGYWNWIRQSPSRGLEWLGYIRYSGRTYYNPSLKSRITINRDTSKNQFSLQLNSVTPEDTAVYYCASVYFTYWGQGTLVTVSS VL: EVVLTQSPGTLSLSPGERATLSCKSSQSLLDSDGKTYLNWYQQKPGQSPKRLISLVSKLDSGIPDRFSGSGSGTDFTLTISRLEPEDFAVYYCWQGSHFPYTFGQGTKLEIK", 0.0585),
]
